List of Relative Potentiation for GABAA2 values.
# Measured Target: GABAA2 (human α2β3γ2 GABAA receptor) (Homo sapiens, UniProt P18507+P47869)
# Construct: expressed in transfected cells; host or cells: Xenopus laevis oocytes injected with capped cRNA
# Sequence (P47869 29-451): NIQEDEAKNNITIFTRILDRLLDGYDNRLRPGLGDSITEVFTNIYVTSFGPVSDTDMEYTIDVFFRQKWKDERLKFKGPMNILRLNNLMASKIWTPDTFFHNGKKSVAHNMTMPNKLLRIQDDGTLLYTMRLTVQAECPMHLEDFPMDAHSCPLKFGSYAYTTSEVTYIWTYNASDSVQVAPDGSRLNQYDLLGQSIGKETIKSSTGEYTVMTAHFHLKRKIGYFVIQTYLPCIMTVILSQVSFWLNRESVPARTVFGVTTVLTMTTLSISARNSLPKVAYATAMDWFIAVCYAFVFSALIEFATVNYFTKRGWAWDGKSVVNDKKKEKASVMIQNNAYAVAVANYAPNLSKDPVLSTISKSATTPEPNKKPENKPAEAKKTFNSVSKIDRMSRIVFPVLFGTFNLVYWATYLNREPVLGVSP
# Sequence (P28472 26-473 partner): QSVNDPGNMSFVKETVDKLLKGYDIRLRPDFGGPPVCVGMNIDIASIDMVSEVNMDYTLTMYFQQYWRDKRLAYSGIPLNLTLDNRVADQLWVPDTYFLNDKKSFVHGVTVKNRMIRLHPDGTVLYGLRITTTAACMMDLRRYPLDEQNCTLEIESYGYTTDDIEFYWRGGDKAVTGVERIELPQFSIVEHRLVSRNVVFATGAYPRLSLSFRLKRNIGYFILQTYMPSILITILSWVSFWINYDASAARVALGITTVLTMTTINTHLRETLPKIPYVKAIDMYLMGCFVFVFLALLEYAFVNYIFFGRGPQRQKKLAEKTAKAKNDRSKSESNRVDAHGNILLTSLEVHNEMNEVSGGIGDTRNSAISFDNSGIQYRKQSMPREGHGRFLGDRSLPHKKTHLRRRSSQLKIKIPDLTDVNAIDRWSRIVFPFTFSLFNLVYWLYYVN
# Sequence (P18507 40-475): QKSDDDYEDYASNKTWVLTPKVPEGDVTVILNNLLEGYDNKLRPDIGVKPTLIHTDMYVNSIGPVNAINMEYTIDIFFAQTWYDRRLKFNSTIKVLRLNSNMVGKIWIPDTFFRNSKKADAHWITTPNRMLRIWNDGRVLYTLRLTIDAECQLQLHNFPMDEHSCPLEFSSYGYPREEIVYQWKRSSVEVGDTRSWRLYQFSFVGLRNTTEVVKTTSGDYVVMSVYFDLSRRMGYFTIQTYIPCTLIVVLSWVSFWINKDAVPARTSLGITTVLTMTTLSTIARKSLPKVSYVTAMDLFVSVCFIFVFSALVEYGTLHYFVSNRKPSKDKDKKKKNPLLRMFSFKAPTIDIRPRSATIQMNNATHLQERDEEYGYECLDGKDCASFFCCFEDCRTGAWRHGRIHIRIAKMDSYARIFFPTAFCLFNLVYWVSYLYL
# Experiment Notes: Two-electrode voltage-clamp in Xenopus oocytes, potentiation of GABA EC10 current, GABAA2
# Format: cell-based
# Particulars: percentage potentiation of GABA EC10 current divided by that of diazepam
# Procedure: Presently available GABAA modulator anxiolytics work via interactions at the classical benzodiazepine binding site. To a large degree these anxiolytics lack GABAA receptor subtype-selectivity. […] GABAA receptors were heterologously expressed in Xenopus oocytes by injecting cRNA corresponding to human α1, α2, α3, α5, β2, β3 and γ2 subunits of the GABAA receptor genes. […] Modulatory effect of test compound was determined and compared across subtypes. […]
Respond with the number and no other words.

Reference set (3 entries):
# Chemical Smiles, Measured Target, Relative Potentiation for GABAA2
records = [
    ("CCCNC(=O)c1nnc2c(-c3cccc(C(=O)O)c3)cccc2c1N", "GABAA2 (human α2β3γ2 GABAA receptor) (Homo sapiens, UniProt P18507+P47869)", 0.08),
    ("CCCNC(=O)c1nnc2c(-c3cc(OC)cc(OC)c3)cccc2c1N", "GABAA2 (human α2β3γ2 GABAA receptor) (Homo sapiens, UniProt P18507+P47869)", 0.57),
    ("CCCNC(=O)c1nnc2c(-c3cc(OC)ccc3Cl)c(F)ccc2c1N", "GABAA2 (human α2β3γ2 GABAA receptor) (Homo sapiens, UniProt P18507+P47869)", 0.19),
]

INPUT: # input molecule: CCCNC(=O)c1nnc2c(-c3ccsc3)cccc2c1N ; wanted: its Relative Potentiation for GABAA2
OUTPUT: 0.038

INPUT: Now the same for CCCNC(=O)c1nnc2c(-c3ccc4ccccc4c3)cccc2c1N
OUTPUT: 0.09

This collection of values is drawn from patent US7425556B2.
